Cited source: patent US20110039762A1

# Tested on: M. luteus
# assay-procedure: Kill or inhibit growth/proliferation; morphology, biofilm and growth disruption (Tables 5, 6); note: test concentration or dose not given here
# Type: cell-based, Micrococcus luteus
# Set-up: key: A: Peptide aggregates; B: Less hyphal formation; Clumps; Diffuse clumps and small polyps; F: Diffuse growth; H: Thin; I: Growth inhibition; Microcolony formation; Rippled; Small polyps; Thick; W: Halo formation on top, microlonies on bottom
readout-name: Organism, effect

substance	test-result
PF-012: peptide having multiple activities (chain 1 WRGPNTEAGGKSANNIVQVGGAPT; chain 2 WRGPNTEAGGKSANNIVQVGGAPT; Peptide with targeting and/or antimicrobial activity)	M. luteus (C)
MGIIAGIIKVIKSLIEQFTGK [PF-007]	M. luteus (A)
PF-063: peptide having multiple activities (chain 1 IAAIIVLVLFQKGLLQIFNWILIQLQ; chain 2 IAAIIVLVLFQKGLLQIFNWILIQLQ; Peptide with targeting and/or antimicrobial activity)	M. luteus (R)
PF-051: peptide having multiple activities (chain 1 RFFNFEIKKSTKVDYVFAHVDLSDV; chain 2 RFFNFEIKKSTKVDYVFAHVDLSDV; Peptide with targeting and/or antimicrobial activity)	M. luteus (C)
PF-125: peptide having multiple activities (YVVGALVILAVAGLIYSMLRKA; Peptide with targeting and/or antimicrobial activity)	M. luteus (C)
PF-004: peptide having multiple activities (chain 1 ARLSKAIIIAVIVVYHLDVRGLF; chain 2 ARLSKAIIIAVIVVYHLDVRGLF; Peptide with targeting and/or antimicrobial activity)	M. luteus (A)
VWENRKKYLENEIERHNVFLKLGQEVIKGLNALASRGR [PF-257]	M. luteus (R)
PF-140: peptide having multiple activities (FHRRVIRASEWALTTRSFSTPLRSAAR; Peptide with targeting and/or antimicrobial activity)	M. luteus (R)
PF-249: peptide having multiple activities (INSRYKISF; Peptide with targeting and/or antimicrobial activity)	M. luteus (R)
PF-145: peptide having multiple activities (GIVLTGRAGLVSGACSMALGVGLG; Peptide with targeting and/or antimicrobial activity)	M. luteus (A)
